test: solvent given as SMILES; conditions: in CN(C)C=O
observationType: absorption maximum (nm)

>>> endpointresult("O=Cc1ccc(C2=C3C=c4c(oc5ccccc45)=[N+]3[B-](F)(F)n3c2cc2c4ccccc4oc23)cc1")
589
>>> endpointresult("CCn1c2ccccc2c2cc(-c3cc(-c4ccc5c(c4)c4ccccc4n5CC)nc(-c4ccc(C#N)cc4)n3)ccc21")
370
>>> endpointresult("NS(=O)(=O)c1ccc(N2N=C(c3ccc(O)cc3)CC2c2ccccc2)cc1 (stereo not drawn)")
361

====

experiment: solvent given as SMILES; details: in CC#N
Each record here notes measured absorption maximum.
observationType: absorption maximum

>>> endpointresult("CSc1cc(-c2cc3cc4c5c(c3oc2=O)CCCN5CCC4)oc(=O)c1C#N")
"537 nm"
>>> endpointresult("CN(C)c1ccc(C(=O)Nc2ccccc2)cc1")
"314 nm"
>>> endpointresult("NCc1ccc2ccc3cccc4ccc1c2c34")
"341 nm"
>>> endpointresult("CC1(C)CC(=O)C2=C(C1)Oc1ccc3cc(O)ccc3c1C2c1ccccn1 (configuration not stated)")
"349 nm"
>>> endpointresult("COc1ccc(/C=C/c2ccccc2)cc1")
"317 nm"
>>> endpointresult("COc1cc(OC)cc(-c2ccc(-c3ccc(C#N)s3)s2)c1")
"364 nm"
>>> endpointresult("CCC1(CC)c2ccccc2-c2ccc(C#Cc3ccc4ccc5cccc6ccc3c4c56)cc21")
"399 nm"
>>> endpointresult("COc1ccc(/C=C/c2nc3c4ccccc4c4ccccc4c3o2)cc1")
"368 nm"
>>> endpointresult("O=C(O)c1ccc(-c2nc(-c3ccccc3)c3c4ccccc4ccn23)cc1")
"353 nm"
>>> endpointresult("Cc1ccc2cc3c(=O)n(C)c(=O)n(C)c3nc2c1")
"353 nm"
>>> endpointresult("COc1c(-c2ccc(N(C)C)cc2)oc2ccccc2c1=O")
"375 nm"
>>> endpointresult("COc1cccc(-c2[nH]c(=O)n3c2-c2ccccc2C3=O)c1O")
"393 nm"
>>> endpointresult("Cc1cc(C)c(C2=C3C=C(c4ccccc4)C(c4ccccc4)=[N+]3[B-](F)(F)n3c2cc(-c2ccccc2)c3-c2ccccc2)c(C)c1")
"578 nm"
>>> endpointresult("CN(C)c1cccc2c1C(=O)c1ccccc1C2=O")
"502 nm"
>>> endpointresult("CN(C)c1ccc(/C=C/C=N/N=C/c2ccc3ccc4cccc5ccc2c3c45)cc1")
"426 nm"
>>> endpointresult("CCN(CC)c1ccc(-c2cc3c(s2)c(C(=O)OC)cc(=O)n3C)cc1")
"436 nm"
>>> endpointresult("N#CC(C#N)=C(/C=C/c1cc2c3c(c1)CCCN3CCC2)c1ccc2c3c(cccc13)CC2")
"540 nm"
>>> endpointresult("c1ccc(-c2pc3ccccc3s2)cc1 (configuration not stated)")
"330 nm"
>>> endpointresult("Cc1cc(=O)c2c(ccc3ccc(O)cc32)o1")
"336 nm"
>>> endpointresult("CCN(CC)c1ccc2cc(/C=C/C(O)=C3\\CC/C(=C\\c4cc5ccc(N(CC)CC)cc5oc4=O)C3=O)c(=O)oc2c1")
"532 nm"
>>> endpointresult("CC1=CC(C)=[N+]2C1=C(c1c3ccccc3cc3ccccc13)c1c(C)cc(C)n1[B-]2(F)F")
"502 nm"
>>> endpointresult("CCCCOC(=O)c1ccccc1-c1c2ccc(=[N+](CC)CC)cc-2oc2cc(N(CC)CC)ccc12")
"555 nm"
>>> endpointresult("O=c1oc2ccccc2cc1-c1cc2ccccc2o1")
"366 nm"
>>> endpointresult("Nc1cc[nH]c(=S)n1")
"283 nm"
>>> endpointresult("CCCCCCCCCCCCC(CCCCCCCCCC)Cn1c2cc(/C=C/C=C(C#N)C#N)c3cccc4c5cccc6c(/C=C/C=C(C#N)C#N)cc1c(c65)c2c34 (configuration not stated)")
"599 nm"
>>> endpointresult("CN(C)c1ccc(C2=Cc3cccc[n+]3[B-](F)(F)O2)cc1")
"417 nm"
>>> endpointresult("CCc1ccc(/C=N/c2cc(C(C)C)c(O)cc2C)cc1")
"340 nm"
>>> endpointresult("CN(C)c1ccc(C=C/C=C/C=C/c2ccc(C#N)cc2)cc1")
"418 nm"
>>> endpointresult("COc1ccc(-c2csc(/C(C#N)=C/c3ccccc3Cl)n2)cc1")
"372 nm"
>>> endpointresult("CC(C)[Si]1(C(C)C)c2cc(C#N)ccc2-c2ccc(N(C)C)cc21")
"360 nm"
>>> endpointresult("F[B-]1(F)n2c(c3cccc4cccc2c43)=Nc2cccc(Cl)[n+]21")
"470 nm"
>>> endpointresult("Cc1ccc(C2=[N+]3C(=Cc4c(C)cc(C)n4[B-]3(F)F)c3ccccc32)[nH]1")
"600 nm"

====

# key: entry, value: absorption maximum
test: solvent given as SMILES; conditions: in CCOC(C)=O
observationType: absorption maximum (nm)

>>> endpointresult("Nc1cc(N)cc(-c2nc3ccccc3s2)c1")
360
>>> endpointresult("F[B-]1(F)n2c(NCc3ccccc3)ccc2C(c2c(Cl)cccc2Cl)=C2C=CC(NCc3ccccc3)=[N+]21")
580
>>> endpointresult("Oc1cccc(/N=C/c2ccccc2Oc2ccccc2)c1")
321
>>> endpointresult("O=c1oc2ccccc2cc1-c1cc2ccccc2o1")
368
>>> endpointresult("CCCSc1ccc2n1[B-](F)(F)[N+]1=C(SC#N)C=CC1=C2c1ccccc1")
549
>>> endpointresult("COC(=O)[C@H](Cc1ccc2oc3c(c2c1)=CC1=C(c2ccc(OC)cc2)c2cc4c5cc(C[C@H](NC(=O)OC(C)(C)C)C(=O)OC)ccc5oc4n2[B-](F)(F)[N+]=31)NC(=O)OC(C)(C)C")
581.5
>>> endpointresult("CCCN1C(=O)c2c3c(c4c(c2C1=O)CCc1cc(-c2ccc(N(C)C)cc2)c(OC)cc1-4)-c1cc(OC)c(-c2ccc(N(C)C)cc2)cc1CC3")
407
>>> endpointresult("F[B-]1(F)n2cccc2C=C2C=CC=[N+]21")
498

====

experiment: solvent given as SMILES; details: in ClCCl
Reported absorption maximum values follow for various compounds
observationType: absorption maximum (nm)

>>> endpointresult("F[B-]1(F)n2cccc2C(c2ccc(-c3c4ccccc4c(-c4ccccc4)c4ccccc34)cc2)=C2C=CC=[N+]21")
502
>>> endpointresult("COc1cc2c(cc1OC)C1=C[C@H](c3ccccc3)C3(C(C#N)=C(C#N)N1CC2)c1cc(Br)ccc1-c1ccc(Br)cc13")
311
>>> endpointresult("CN(C)c1ccc(/C=C/C=C2\\CCCC2=O)cc1")
420
>>> endpointresult("CC(C)c1ccc2ccc3c(C(C)C)ccc4ccc1c2c43")
346
>>> endpointresult("CCOC(=O)c1c(C(=O)OC)c(-c2cc3cc(OC)ccc3oc2=O)nn1-c1ccccc1")
351
>>> endpointresult("CCCCCCCCCCCCCCn1c(-c2cc(-c3nc4ccc(C)cc4n3CCCCCCCCCCCCCC)cc(-c3nc4ccc(C)cc4n3CCCCCCCCCCCCCC)c2)nc2ccc(C)cc21")
306.5
>>> endpointresult("F[B-]1(F)n2c(cc(-c3ccccc3)c2-c2ccccc2)C(c2ccccc2)=C2C=C(c3ccccc3)C(c3ccccc3)=[N+]21")
584
>>> endpointresult("COc1ccc(-c2cccc3ncc(-c4ccc(C#N)cc4)n23)cc1")
329
>>> endpointresult("c1cc2ccc3[o+]c4ccc5cccc6c7cccc8c(c1)c2c3c(c87)c4c56")
573
>>> endpointresult("CC1CC(C)(C)N(C)c2ccc(/C=C/c3ccc(/C=C(\\C#N)C(=O)O)s3)cc21 (stereo not drawn)")
525
>>> endpointresult("C(#Cc1ncc(-c2ccccc2)o1)c1ccco1")
325
>>> endpointresult("c1ccc(C2CCN3COc4c5ccccc5c5c6c7c(c2c3c46)C(c2ccccc2)CCN7CO5)cc1 (stereo not drawn)")
405
>>> endpointresult("O=S1(=O)c2ccc(-c3ccc(-n4c5ccccc5c5ccccc54)cc3)cc2C2(c3ccccc3-c3ccccc32)c2cc(-c3ccc(-n4c5ccccc5c5ccccc54)cc3)ccc21")
341

====

experiment: solvent given as SMILES; settings: in C1CCOC1
Attribute: absorption maximum
observationType: absorption maximum (nm)

>>> endpointresult("COc1cc2c(cc1-c1ccc(C#N)cc1)Cc1c3c(c4c(c1-2)-c1cc(OC)c(-c2ccc(C#N)cc2)cc1C4)C(=O)N(CCC(C)C)C3=O")
409
>>> endpointresult("O=C(O)c1ccc(C(=O)O)c2cc3ccccc3cc12")
396
>>> endpointresult("C(=C\\c1ccncn1)/c1ccc(N(c2ccccc2)c2ccccc2)cc1")
398

====

assay: solvent given as SMILES; settings: in Cc1ccccc1
observationType: absorption maximum (nm)

>>> endpointresult("CCN(CC)c1ccc2cc(/C(Cl)=C/C=C/C(=C(C#N)C#N)c3ccc4c(c3)c3ccccc3n4CC)c(=O)oc2c1")
508
>>> endpointresult("CCC1(CC)c2ccccc2-c2ccc(C#Cc3cc(C#Cc4ccc5c(c4)C(CC)(CC)c4ccccc4-5)c4ccc5c(C#Cc6ccc7c(c6)C(CC)(CC)c6ccccc6-7)cc(C#Cc6ccc7c(c6)C(CC)(CC)c6ccccc6-7)c6ccc3c4c65)cc21")
488
>>> endpointresult("CCN(CC)c1ccc(-c2ccc(-c3nc4ccccc4c(=O)[nH]3)s2)cc1")
410
>>> endpointresult("COc1cc(-c2nc3c4cccnc4c4ncccc4c3[nH]2)c(OC)cc1/C=C/c1ccncc1")
395
